tested on: 786-0 renal; test: NCI-60 one-dose screen, 48 h; settings: 10 µM unless noted
The panel holds about 83,000 compounds, 20% with a hit somewhere; the sample as a whole holds those more often. The source made the active and inactive calls. How the source made its calls: active means growth percent below 10; inactive means the rest.
Respond with a class label; see active, inactive

C=COC(=O)CCOCC(CC)CCCC (centres undefined) = inactive

stdin: Check the results log: what was the call for `CC(=O)N=c1ccc2nc3c(cc(N)c4ccccc43)oc-2c1` ?
stdout: active

stdin: Check the results log: what was the call for `OCCOc1ccc(-c2cc(-c3ccccn3)nc(-c3ccccn3)c2)cc1` ?
stdout: active

stdin: Check the results log: what was the call for `COC(=O)c1ccccc1C(=O)c1c(C)cc(C)cc1C` ?
stdout: inactive

stdin: Check the results log: what was the call for COc1ccc(C2CCCCC2=O)cc1 (centres undefined) ?
stdout: inactive

stdin: Check the results log: what was the call for `Cc1ccc2nc(N)nnc2c1` ?
stdout: inactive

stdin: Check the results log: what was the call for `Cc1ccc(NC(=O)c2ccccc2Cl)cc1` ?
stdout: inactive
